B1: Far upstream element-binding protein 3, residues 75 to 150; numbered along this chain, Q96I24 (parent)
chain: RTVITEEFKVPDKMVGFIIGRGGEQISRIQAESGCKIQIASESSGIPERPCVLTGTPESIEQAKRLLGQIVDRCRN

Variants of: B1
Assay: abundance fitness (aPCA) (normalised: wild type 0, dead -1); higher = more abundant; growth selection in yeast, the domain comes from the species named
Conditions: Homo sapiens
VALUE KIND: abundance fitness
Please reply with the number alone, leaving off any unit.

### Prompt Consider the variant "R28D" and give its measured abundance fitness.
### Response -0.077

### Prompt For the variant "Q38N" , what abundance fitness is on record?
### Response -0.086

### Prompt Which abundance fitness reading was recorded for the variant "K64H" ?
### Response -0.421

### Prompt For the variant shown here, "L67A" , give the reported abundance fitness.
### Response -0.845

### Prompt Any idea what abundance fitness was measured for "I19T" ?
### Response -0.039

### Prompt // returns reported abundance fitness for input "Q30A"
### Response -0.058

### Prompt // query abundance fitness value for entry "I39R"
### Response -0.526

### Prompt Report abundance fitness for "I39T" please.
### Response -0.321

### Prompt Item under review: "T54C" . Reported abundance fitness?
### Response -0.187

### Prompt Request the reported abundance fitness associated with "S43E"
### Response -0.049

### Prompt abundance fitness for "S43N" ?
### Response -0.125

### Prompt Value lookup for abundance fitness; key = "V52P"
### Response -0.931
